Tested on: Colo205 (human colon cancer cells)
Test: MTT in vitro anti-tumor activity test, Colo205
Assay type: cell-based
Conditions: Colo205, 100 μg/mL, MTT, 72 h
metricName: Colo205 100 μg/mL IC % (%)
One number for each entry, in %.

Please review the entries below; each comes with its answer.
In [3]: df
Out[3]:
                                   molecule              metricname  numericreadout
0  COc1ccc2c(c1)C(=O)c1c-2c(OCCN(C)C)nc2cc(OC)c(OC)cc12 [Compound 20]  Colo205 100 μg/mL IC %           93.79
1  COc1cc2nc(OCCN(C)C)c3c(c2cc1OC)C(=O)c1cc(Cl)ccc1-3 [Compound 26]  Colo205 100 μg/mL IC %             100
2  O=C1c2cc(Cl)ccc2-c2c(OCCN3CCCC3)nc3ccccc3c21 [Compound 9]  Colo205 100 μg/mL IC %           71.11
3  CCN(CC)CCOc1nc2ccccc2c2c1-c1ccc(Cl)cc1C2=O [Compound 8]  Colo205 100 μg/mL IC %           99.01
4  COc1ccc2c(c1)C(=O)c1c-2c(OCCn2ccnc2)nc2ccccc12 [Compound 4]  Colo205 100 μg/mL IC %           60.32
5  CN(C)CCOc1nc2ccccc2c2c1-c1ccc(Cl)cc1C2=O [Compound 7]  Colo205 100 μg/mL IC %             100
6  O=C1c2cc(Cl)ccc2-c2c(OCCN3CCCCC3)nc3ccccc3c21 [Compound 11]  Colo205 100 μg/mL IC %           69.24
7  CC[C@@]1(O)C(=O)OCc2c1cc1n(c2=O)Cc2cc3cc(O)ccc3nc2-1 [HCPT, 10-hydroxycamptothecin, reference compound]  Colo205 100 μg/mL IC %           88.14

The following molecules each have a reported value; give each one's Colo205 100 μg/mL IC %.
1. COc1ccc2c(c1)C(=O)c1c-2c(OCCBr)nc2ccccc12 [Compound 30]
2. COc1ccc2c(c1)C(=O)c1c-2c(OCCN2CCOCC2)nc2ccccc12 [Compound 5]
3. O=C1c2cc(Cl)ccc2-c2c(OCCn3ccnc3)nc3ccccc3c21 [Compound 10]
4. COc1cc2nc(OCCn3ccnc3)c3c(c2cc1OC)C(=O)c1cc(Cl)ccc1-3 [Compound 27]
5. COc1ccc2c(c1)C(=O)c1c-2c(OCCN(C)C)nc2ccc(OC)cc12 [Compound 13]
6. COc1cc2nc(OCCCN(C)C)c3c(c2cc1OC)C(=O)c1cc(Cl)ccc1-3 [Compound 29]
7. COc1ccc2c(c1)-c1c(OCCN(C)C)nc3ccc(OC)cc3c1C2=O [Compound 17]
8. COc1ccc2c(c1)C(=O)c1c-2c(OCCN(C)C)nc2ccccc12 [Compound 1]

**Result**
[21.11, 43.88, 80.16, 66.27, 96.52, 98.69, 100, 100]

# batch size: 2; output Colo205 100 μg/mL IC % per entry
1. CCN(CC)CCOc1nc2ccccc2c2c1-c1ccc(OC)cc1C2=O [Compound 2]
2. CN(C)CCCOc1nc2ccccc2c2c1-c1ccc(Cl)cc1C2=O [Compound 12]

**Result**
100
100
